# Tested on: S. aureus MP-17 ATCCBAA-977 (BAA 977 iErm)
# TEST SUMMARY: CLSI broth dilution MIC determination
# Assay type: cell-based
# CONDITIONS: Staphylococcus aureus; S. aureus MP-17, ATCCBAA-977, iErm; read-out: MIC
PROPERTY: MIC (µg/mL)
Give just the number in µg/mL; leave the unit off.

INSERT INTO measurements (compound, test_result) VALUES
  ('CC[C@H]1OC(=O)[C@@](C)(F)C(=O)[C@H](C)[C@@H](O[C@@H]2OC(C)CC(N(C)C)C2O)[C@](C)(OC)C[C@@H](C)C(=O)[C@H](C)[C@H]2N(CC#CCn3cc(-c4cc(=O)cc[nH]4)nn3)C(=O)O[C@]12C (stereo partly shown) [FSM-100597]', 1),
  ('CC[C@H]1OC(=O)[C@@](C)(F)C(=O)[C@H](C)[C@@H](O[C@@H]2OC(C)CC(N(C)C)C2O)[C@](C)(OC)C[C@@H](C)C(=O)[C@H](C)[C@H]2N(CC#CCn3cc(-c4cncc(N)n4)nn3)C(=O)O[C@]12C (stereo partly shown) [FSM-22747]', 0.25);

## Task What does the data say about its MIC? Entry: CC[C@H]1OC(=O)[C@@](C)(F)C(=O)[C@H](C)[C@@H](O[C@@H]2OC(C)CC(N(C)C)C2O)[C@](C)(OC)C[C@@H](C)C(=O)[C@H](C)[C@H]2N(CC#CCn3cc(-c4cccc(F)n4)nn3)C(=O)O[C@]12C (stereo partly shown) [FSM-100627]
## Result 0.06

## Task Lookup CC[C@H]1OC(=O)[C@@](C)(F)C(=O)[C@H](C)[C@@H](O[C@@H]2OC(C)CC(N(C)C)C2O)[C@](C)(OC)C[C@@H](C)C(=O)[C@H](C)[C@H]2N(CC#CCn3cc(-c4cc(OC)ccn4)nn3)C(=O)O[C@]12C (stereo partly shown) [FSM-100576]
## Result 0.125

Reference source: patent US10633407B2
